Just for reference, patent US7053177B1 is where these values come from.

# MEASUREMENT_TARGET: T1, recombinant hPEPT1 receptor domain (human PEPT1, amino acid residues 391-571), His-tag fusion protein (human, UniProt P46059 391-571)
# T1 construct: purified under denaturing conditions; coated on plates
# T1 sequence: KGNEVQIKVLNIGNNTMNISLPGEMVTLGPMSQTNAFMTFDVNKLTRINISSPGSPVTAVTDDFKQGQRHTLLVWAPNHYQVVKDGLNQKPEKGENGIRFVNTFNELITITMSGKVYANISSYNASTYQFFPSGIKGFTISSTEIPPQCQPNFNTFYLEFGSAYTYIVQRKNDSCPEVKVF
# MEASUREMENT_DESCRIPTION: phage ELISA on coated hPEPT1
Ends that are not written are not given here.
READOUT_NAME: OD (OD 650 nm)
Express your answer in OD 650 nm, writing the number without its unit.

Query :: Retrieve OD measured for SRCTDNEQCPDTGTRSRSVSNARYFSSRLLKTHAPHRP (cysteine pairing not given here; also: displayed as N-terminal pIII fusion on M13 phage, M13 phage displaying this insert as N-terminal pIII fusion; whole phage in the ELISA; not shown: M13 phage particle / pIII display carrier (and vector flanks)) [phage PAX46] and print it.
Result :: 0.429

Query :: Retrieve OD measured for SFQVYPDHGLERHALDGTGPLYAMPGRWIRARPQNRDRQ (also: displayed as N-terminal pIII fusion on M13 phage, M13 phage displaying this insert as N-terminal pIII fusion; whole phage in the ELISA; not shown: M13 phage particle / pIII display carrier (and vector flanks)) [phage PAX45] and print it.
Result :: 0.419

Query :: Retrieve OD measured for SQVDSFRNSFRWYEPSRALCHGCGKRDTSTTRIHNSPSDSYPTR (cysteine pairing not given here; also: displayed as N-terminal pIII fusion on M13 phage, M13 phage displaying this insert as N-terminal pIII fusion; whole phage in the ELISA; not shown: M13 phage particle / pIII display carrier (and vector flanks)) [phage PAX17] and print it.
Result :: 0.514

Query :: Retrieve OD measured for RSITDGGINEVDLSSVSNVLENANSHRAYRKHRPTLKRP (also: displayed as N-terminal pIII fusion on M13 phage, M13 phage displaying this insert as N-terminal pIII fusion; whole phage in the ELISA; not shown: M13 phage particle / pIII display carrier (and vector flanks)) [phage PAX35] and print it.
Result :: 0.474
